measurement-target: UniProt:O15427
Sequence (O15427 whole entry, looked up): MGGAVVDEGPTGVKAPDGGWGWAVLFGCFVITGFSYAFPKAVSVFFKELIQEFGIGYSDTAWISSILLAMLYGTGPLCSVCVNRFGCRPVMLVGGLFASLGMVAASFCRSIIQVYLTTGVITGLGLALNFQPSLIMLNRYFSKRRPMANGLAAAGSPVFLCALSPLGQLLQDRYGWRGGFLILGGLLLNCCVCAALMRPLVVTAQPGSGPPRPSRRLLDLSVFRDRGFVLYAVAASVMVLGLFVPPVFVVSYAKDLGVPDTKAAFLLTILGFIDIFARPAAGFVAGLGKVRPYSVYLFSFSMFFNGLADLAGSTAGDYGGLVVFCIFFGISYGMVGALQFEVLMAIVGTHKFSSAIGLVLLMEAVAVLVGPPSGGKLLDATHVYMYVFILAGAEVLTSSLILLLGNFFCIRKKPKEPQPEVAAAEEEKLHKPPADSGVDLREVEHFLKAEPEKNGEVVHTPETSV
Sequence (P35613 whole entry partner, looked up): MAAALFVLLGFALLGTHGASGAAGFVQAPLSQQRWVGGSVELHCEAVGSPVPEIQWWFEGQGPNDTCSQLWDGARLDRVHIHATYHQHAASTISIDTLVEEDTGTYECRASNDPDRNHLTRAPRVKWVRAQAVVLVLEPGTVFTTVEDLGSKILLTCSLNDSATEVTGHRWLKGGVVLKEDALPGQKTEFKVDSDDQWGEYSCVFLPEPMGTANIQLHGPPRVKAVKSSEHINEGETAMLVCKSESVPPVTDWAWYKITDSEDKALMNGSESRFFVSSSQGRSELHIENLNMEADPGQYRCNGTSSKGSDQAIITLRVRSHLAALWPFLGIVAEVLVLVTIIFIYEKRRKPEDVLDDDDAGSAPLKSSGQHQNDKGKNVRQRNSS
protocol-summary: Assay 3: MCT4-mediated lactate transport in MDA-MB-231 breast cancer cells
Assay type: cell-based
applied-conditions: MDA-MB-231 cells; lactate transport

# compound-structure-string, unit-info, IC50
measured = [
    ("Cn1ncc2cc(-c3cc(COC(C)(C)C(=O)O)nn3Cc3ccccc3Cl)ccc21", "nM", 31),
    ("CC(C)Oc1ccc(-c2cc(COC(C)(C)C(=O)O)nn2Cc2ccccc2Cl)s1", "nM", 2.8),
    ("CC(C)(OCc1cc(-c2cccc(OC3CC3)c2)n(-c2ccccc2N2CCCC2)n1)C(=O)O", "nM", 3.2),
    ("Cn1ncc2ccc(-c3cc(COC(C)(C)C(=O)O)nn3-c3ccccc3N3CCCC3)cc21", "nM", 8.1),
    ("CC(C)COc1ccc(-c2cc(COC(C)(C)C(=O)O)nn2Cc2ccccc2Cl)s1", "nM", 1.2),
    ("Cn1ncc2ccc(-c3cc(COC(C)(C)C(=O)O)nn3Cc3ccccc3Cl)cc21", "nM", 15),
    ("COc1ccccc1Cn1nc(COC(C)(C)C(=O)O)cc1-c1cccc(OC2CC2)c1", "nM", 7.9),
    ("CCOc1cc(OCC)cc(-c2cc(COC(C)(C)C(=O)O)nn2-c2ccccc2Cl)c1", "nM", 2.9),
]

* * *

measurement-target: UniProtKB O15427
protocol-summary: Assay 3: MCT4-mediated lactate transport in MDA-MB-231 breast cancer cells
Assay type: cell-based
applied-conditions: MDA-MB-231 cells; lactate transport
We label by threshold. Values of IC50 strictly beneath 200 nM are yes. Values of 200 nM and up are no.

# compound, classification
records = [
    ("CC(C)COc1cccc(-c2cc(COC(C)(C)C(=O)O)nn2Cc2ccccn2)c1 [Example 247]", "yes"),
    ("CC[C@@](C)(OCc1cc(-c2cccc(OC3CC3)c2)n(-c2ccccc2N2CCC2)n1)C(=O)O [Example 266]", "yes"),
    ("CC[C@@H](OCc1cc(-c2cccc(OC)c2)n(Cc2ccccc2Cl)n1)C(=O)O [Example 123]", "no"),
    ("CC(C)(OCc1cc(-c2cccc(OC3CC3)c2)n(-c2ccccc2N2CC[C@@H](O)C2)n1)C(=O)O [Example 237]", "yes"),
    ("CC(C)(OCc1cc(-c2cccc(OC3CC3)c2)n(-c2cccc3cn[nH]c23)n1)C(=O)O [Example 152]", "yes"),
    ("CC(C)(OCc1cc(-c2cccc(OC3COC3)c2)n(-c2ccccc2F)n1)C(=O)O [Example 160]", "no"),
    ("CC[C@@](C)(OCc1cc(-c2cccc(OC)c2)n(Cc2ccccc2Cl)n1)C(=O)O [Example 219]", "yes"),
]

* * *

protocol-summary: Metabolic stability in mouse liver microsomes (in vitro t1/2)
Format: in vitro ADME
applied-conditions: mouse liver microsomes 0.5 mg/mL, 2 μM compound; read-out: Mouse microsome t1/2, min
We label by threshold. Values of half-life at 2 µM strictly beneath 20 h are criterion met. Values of 20 h and up are criterion not met.

# compound-structure-string, classification
measured = [
    ("CCOc1ccccc1Cn1nc(COC(C)(C)C(=O)O)cc1-c1cc(OC)cc(OC)c1", "criterion met"),
    ("CC[C@@](C)(OCc1cc(-c2cc(OC)cc(OC)c2)n(-c2ccccc2Cl)n1)C(=O)O", "criterion met"),
    ("COc1cccc(-c2cc(COC(C)(C)C(=O)O)nn2Cc2ccccc2N(C)C)c1", "criterion met"),
    ("CC(C)(OCc1cc(-c2cccc(OC3CC3)c2)n(Cc2ccccc2N2CCCC2)n1)C(=O)O", "criterion met"),
    ("CCn1ncc2ccc(-c3cc(COC(C)(C)C(=O)O)nn3-c3ccccc3Cl)cc21", "criterion not met"),
    ("CCOc1cccc(-n2nc(COC(C)(C)C(=O)O)cc2-c2cc(OC)cc(OC)c2)c1", "criterion not met"),
    ("CC(C)Cc1ncc(-c2cc(COC(C)(C)C(=O)O)nn2Cc2ccccc2Cl)o1", "criterion met"),
    ("COc1cccc(-c2cc(COC(C)(C)C(=O)O)nn2Cc2ccccc2Cl)c1", "criterion not met"),
]

* * *

Collected IC50 values appear next to each entry.
measurement-target: MCT1 (Homo sapiens (Human), UniProt P53985)
Sequence (P53985 whole entry): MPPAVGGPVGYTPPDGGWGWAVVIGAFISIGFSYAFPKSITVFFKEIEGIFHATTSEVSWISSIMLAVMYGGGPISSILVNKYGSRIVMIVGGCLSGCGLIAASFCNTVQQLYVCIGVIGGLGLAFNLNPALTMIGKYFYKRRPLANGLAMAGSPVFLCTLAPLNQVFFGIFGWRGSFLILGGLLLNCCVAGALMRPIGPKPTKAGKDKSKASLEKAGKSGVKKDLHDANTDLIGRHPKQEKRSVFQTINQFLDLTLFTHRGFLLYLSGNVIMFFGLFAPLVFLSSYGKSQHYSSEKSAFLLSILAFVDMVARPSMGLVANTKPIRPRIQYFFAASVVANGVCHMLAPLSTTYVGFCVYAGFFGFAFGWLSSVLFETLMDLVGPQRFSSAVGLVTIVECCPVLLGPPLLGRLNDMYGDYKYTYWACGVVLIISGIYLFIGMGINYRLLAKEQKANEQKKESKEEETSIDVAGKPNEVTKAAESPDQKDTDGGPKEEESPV
Sequence (P35613 140-385 partner): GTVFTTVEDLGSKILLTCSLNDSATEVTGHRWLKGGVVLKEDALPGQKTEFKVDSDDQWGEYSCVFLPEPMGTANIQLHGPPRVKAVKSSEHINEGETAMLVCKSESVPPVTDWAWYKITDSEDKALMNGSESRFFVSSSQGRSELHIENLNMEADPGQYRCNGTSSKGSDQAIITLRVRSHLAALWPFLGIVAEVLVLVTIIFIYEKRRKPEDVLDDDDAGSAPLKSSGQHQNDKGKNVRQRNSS
protocol-summary: Assay 4: MCT1-mediated lactate transport in BT20 breast cancer cells
Assay type: cell-based
applied-conditions: Table 27
Method: 10 μL of a 30 mM DMSO stock of BCECF-AM ester (Life Technologies) is added and the cells are incubated at 37° C. for 5 min. The cells are pelleted (300 g, 5 min), washed once with 1 mL Tyrode's Solution, pH 7.4, re-pelleted (300 g, 5 min), and resuspended in 1 mL Tyrode's Solution, pH 7.4. Assay 4: MCT1-Mediated Lactate Transport in BT20 Breast Cancer Cells. Preparation of BCECF loaded cells are as described for Assay 1. […]
property-measured: IC50 (nM)

# compound, unit-info, relation-qualifier, test-result
records = [
    ("COc1cccc(-c2cc(COC(C)(C)C(=O)O)nn2-c2ccccc2OC(C)C)c1 [Example 215]", "nM", ">", 100000),
    ("CCOc1ccccc1Cn1nc(COC(C)(C)C(=O)O)cc1-c1cc(OC)cc(OC)c1 [Example 211]", "nM", "=", 20000),
    ("CC(C)(OCc1cc(-c2cccc(OC3CC3)c2)n(-c2cccc3[nH]ncc23)n1)C(=O)O [Example 153]", "nM", "=", 44000),
    ("CC(C)(OCc1cc(-c2cc3ccccc3s2)n(Cc2ccccc2Cl)n1)C(=O)O [Example 195]", "nM", "=", 13000),
]

* * *

protocol-summary: Metabolic stability in mouse liver microsomes (in vitro t1/2)
Assay type: in vitro ADME
applied-conditions: mouse liver microsomes, 60 min
Collected Mouse microsome % 60 min values appear next to each entry.
property-measured: Mouse microsome % 60 min (%)

# compound-structure-string, property-measured, unit-info, test-result
data = [
    ("CCn1ncc2ccc(-c3cc(COC(C)(C)C(=O)O)nn3Cc3ccccc3Cl)cc21", "Mouse microsome % 60 min", "%", 103),
    ("CC(C)COc1ncc(-c2cc(COC(C)(C)C(=O)O)nn2Cc2ccccc2Cl)s1", "Mouse microsome % 60 min", "%", 64),
    ("Cn1ncc2ccc(-c3cc(COC(C)(C)C(=O)O)nn3Cc3ccccc3Cl)cc21", "Mouse microsome % 60 min", "%", 95),
    ("CC(C)COc1cccc(-c2cc(COC(C)(C)C(=O)O)nn2-c2cccc3cnn(C)c23)c1", "Mouse microsome % 60 min", "%", 99),
]

* * *

measurement-target: UniProt:P53985
protocol-summary: Assay 4: MCT1-mediated lactate transport in BT20 breast cancer cells
Format: cell-based
applied-conditions: Table 27

# compound, relation-qualifier, IC50 (nM)
records = [
    ("Cn1ncc2ccc(-c3cc(COC(C)(C)C(=O)O)nn3-c3ccccc3Cl)cc21", ">", 100000),
    ("CC(C)COc1cccc(-c2cc(COC(C)(C)C(=O)O)nn2-c2ccccc2)c1", "=", 12000),
    ("CC[C@@](C)(OCc1cc(-c2cccc(OCC(C)C)c2)n(-c2cccc3cnn(C)c23)n1)C(=O)O", "=", 16000),
    ("CCn1ncc2ccc(-c3cc(COC(C)(C)C(=O)O)nn3-c3ccccc3N3CCC3)cc21", "=", 31000),
    ("CCn1ncc2ccc(-c3cc(COC(C)(C)C(=O)O)nn3-c3ccccc3N3CCCC3)cc21", "=", 42000),
    ("CC[C@@](C)(OCc1cc(-c2cccc(OC)c2)n(Cc2ccccc2Cl)n1)C(=O)O [Example 219]", "=", 14000),
    ("COc1cc(OC)cc(-c2cc(COC(C)(C)C(=O)O)nn2-c2ccccc2Cl)c1", ">", 100000),
    ("CCOc1cc(OCC)cc(-c2cc(COC(C)(C)C(=O)O)nn2Cc2ccccc2OCC)c1", "=", 17000),
]

* * *

Collected half-life values appear next to each entry.
protocol-summary: Pharmacokinetic assay in rat (IV 3 mg/kg, PO 10 mg/kg)
Format: in vivo
applied-conditions: Male Sprague-Dawley rat, plasma, PO 10 mg/kg, read-out: Rat t1/2 (converted)

# compound, unit-info, half-life
rows = [
    ("CCCn1ncc2ccc(-c3cc(COC(C)(C)C(=O)O)nn3-c3ccccc3N3CCC3)cc21 [Example 246]", "h", 4.7),
    ("COc1cccc(-c2cc(COC(C)(C)C(=O)O)nn2Cc2ccccc2Cl)c1 [Example 14]", "h", 3.8),
    ("CC(C)(OCc1cc(-c2cccc(OC3CCC3)c2)n(-c2ccccc2Cl)n1)C(=O)O [Example 175]", "h", 4.2),
    ("CCOc1ccccc1Cn1nc(COC(C)(C)C(=O)O)cc1-c1cc(OC)cc(OC)c1 [Example 211]", "h", 3.6),
    ("CC(C)(OCc1cc(-c2cccc(OC3CC3)c2)n(-c2ccccc2Cl)n1)C(=O)O [Example 110]", "h", 4.7),
    ("COc1cc(OC)cc(-c2cc(COC(C)(C)C(=O)O)nn2-c2ccccc2N2CCC2)c1 [Example 251]", "h", 3),
    ("CCn1ncc2ccc(-c3cc(COC(C)(C)C(=O)O)nn3-c3ccccc3N3CCC3)cc21 [Example 228]", "h", 3.1),
    ("CC[C@@](C)(OCc1cc(-c2cccc(OC3CC3)c2)n(-c2ccccc2N2CCC2)n1)C(=O)O [Example 266]", "h", 2.7),
]
